Biological target: PD-L1 expressed on MDA-MB-231 cells (UniProt Q9NZQ7 19-290, limits assumed)
Sequence (Q9NZQ7 19-290 limits assumed): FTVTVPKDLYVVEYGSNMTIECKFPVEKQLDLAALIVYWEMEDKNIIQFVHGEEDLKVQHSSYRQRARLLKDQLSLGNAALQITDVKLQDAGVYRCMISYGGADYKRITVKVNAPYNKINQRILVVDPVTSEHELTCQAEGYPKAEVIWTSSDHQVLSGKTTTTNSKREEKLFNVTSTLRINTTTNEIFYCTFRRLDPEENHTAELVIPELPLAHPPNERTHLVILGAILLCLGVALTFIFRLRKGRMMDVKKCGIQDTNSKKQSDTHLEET
Assay: cell-based or functional assay
Bridges are numbered along the chain shown (N, C = ends). Where no end group is shown, it is not given here. [ ]: non-standard residue; d: D form. Ahx = NCCCCCC(=O)O
# maps each entry to its Fold induction
measured-metric: Fold induction (fold)

binder	recorded-measurement
cyclo(SNTSESF[Ahx]Q) (SMILES C[C@@H](O)[C@@H]1NC(=O)[C@H](CC(N)=O)NC(=O)[C@H](CO)NC(=O)[C@H](CCC(N)=O)NC(=O)CCCCCNC(=O)[C@H](Cc2ccccc2)NC(=O)[C@H](CO)NC(=O)[C@H](CCC(=O)O)NC(=O)[C@H](CO)NC1=O) [Compound 15]	4
IETSKSF (not fully specified; also: cyclic, bridge and C-terminus not given here) [Compound 6]	4.2
SETSKSF-NH2 (lactam 2-5; N-terminus assumed; SMILES C[C@@H](O)[C@@H]1NC(=O)[C@@H](NC(=O)[C@@H](N)CO)CCC(=O)NCCCC[C@@H](C(=O)N[C@@H](CO)C(=O)N[C@@H](Cc2ccccc2)C(N)=O)NC(=O)[C@H](CO)NC1=O) [Compound 2]	4.3
